Values of pIC50 for Glucocorticoid receptor (Homo sapiens), collected from a number of published sources:
pIC50: −log10 of the molar value.

Reference set, count: 2
CC[C@]12CC[C@@](O)(CC#N)C[C@H]1CCOc1cc3c(cnn3-c3ccnc(C)c3)cc12 : 6.00 to 7.00
CCn1nc(-c2ccccn2)c2c1N[C@@H](C)CS[C@@H]2c1ccc(CCCO)cc1C (single isomer, unassigned) : 6.00 to 7.00

// moving on: another record for pIC50
State its pIC50 for this compound: Cc1ncccc1NC(=O)c1ccc2c(c1)COC(=O)[C@H]1CC(=O)CC[C@@]21Cc1ccccc1 < 5.00
